# Target desc: human integrin αvβ5 (Homo sapiens, UniProt P06756+P18084)
# Sequence (P06756 31-1048): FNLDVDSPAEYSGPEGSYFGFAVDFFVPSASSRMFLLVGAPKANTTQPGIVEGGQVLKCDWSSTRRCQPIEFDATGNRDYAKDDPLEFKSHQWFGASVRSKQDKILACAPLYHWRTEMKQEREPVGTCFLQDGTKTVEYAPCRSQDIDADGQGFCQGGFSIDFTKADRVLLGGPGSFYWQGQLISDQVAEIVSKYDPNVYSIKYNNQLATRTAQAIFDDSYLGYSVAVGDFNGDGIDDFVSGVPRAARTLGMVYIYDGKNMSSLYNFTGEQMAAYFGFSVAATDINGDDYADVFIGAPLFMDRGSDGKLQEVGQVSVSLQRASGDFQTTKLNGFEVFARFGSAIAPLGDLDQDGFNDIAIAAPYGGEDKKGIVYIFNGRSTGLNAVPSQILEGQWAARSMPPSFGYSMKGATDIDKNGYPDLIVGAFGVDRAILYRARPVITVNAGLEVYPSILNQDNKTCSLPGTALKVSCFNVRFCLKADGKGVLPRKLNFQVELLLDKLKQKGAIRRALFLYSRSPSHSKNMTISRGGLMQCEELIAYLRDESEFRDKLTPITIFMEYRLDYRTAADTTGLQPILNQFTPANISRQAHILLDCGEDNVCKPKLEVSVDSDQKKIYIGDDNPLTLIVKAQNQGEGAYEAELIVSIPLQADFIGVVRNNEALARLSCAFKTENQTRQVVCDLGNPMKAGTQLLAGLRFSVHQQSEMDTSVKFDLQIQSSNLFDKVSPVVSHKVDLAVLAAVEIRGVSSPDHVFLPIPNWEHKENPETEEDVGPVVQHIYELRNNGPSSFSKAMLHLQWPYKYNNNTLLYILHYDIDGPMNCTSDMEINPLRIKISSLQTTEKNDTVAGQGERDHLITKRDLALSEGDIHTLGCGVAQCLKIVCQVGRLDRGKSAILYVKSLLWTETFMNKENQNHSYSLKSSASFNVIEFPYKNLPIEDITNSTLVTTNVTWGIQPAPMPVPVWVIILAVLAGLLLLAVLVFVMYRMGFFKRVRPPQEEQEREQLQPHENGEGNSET
# Sequence (P18084 24-799): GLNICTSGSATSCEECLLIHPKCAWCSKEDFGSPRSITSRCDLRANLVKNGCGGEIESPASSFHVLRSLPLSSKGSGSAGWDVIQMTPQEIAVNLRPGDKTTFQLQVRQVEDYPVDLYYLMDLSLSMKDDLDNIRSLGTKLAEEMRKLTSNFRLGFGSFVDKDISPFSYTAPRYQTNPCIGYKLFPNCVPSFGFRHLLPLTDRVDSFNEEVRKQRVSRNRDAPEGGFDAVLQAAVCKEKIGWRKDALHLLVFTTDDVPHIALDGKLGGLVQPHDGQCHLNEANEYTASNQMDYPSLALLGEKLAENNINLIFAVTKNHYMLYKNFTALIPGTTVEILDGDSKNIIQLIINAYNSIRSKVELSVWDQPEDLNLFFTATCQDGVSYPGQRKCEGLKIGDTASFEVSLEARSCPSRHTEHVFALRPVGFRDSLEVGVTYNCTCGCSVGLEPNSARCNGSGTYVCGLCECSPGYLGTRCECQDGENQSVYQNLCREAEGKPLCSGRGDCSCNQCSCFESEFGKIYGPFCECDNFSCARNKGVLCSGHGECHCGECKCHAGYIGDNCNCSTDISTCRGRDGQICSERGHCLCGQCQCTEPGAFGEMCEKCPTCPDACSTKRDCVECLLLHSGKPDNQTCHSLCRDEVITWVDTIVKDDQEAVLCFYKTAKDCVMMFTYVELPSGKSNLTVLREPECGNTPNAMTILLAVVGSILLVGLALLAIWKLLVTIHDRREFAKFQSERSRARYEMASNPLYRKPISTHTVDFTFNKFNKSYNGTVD
# Protocol summary: Evaluation of integrin binding property (surface plasmon resonance, Biacore 3000, immobilized cyclic peptide)
# Condition details: SPR, 25° C., HEPES buffer with 5 mM magnesium chloride, integrin 30-1,000 nM; read-out: Performance evaluation: Binding activity (dissociation constant between the cyclic peptide and human integrin αvβ5)
pKd: −log10 of the molar value. Starred links: 1 amine or outer side, 2 acyl side, 3 side chain; linkers in the order of their positions; H or OH if unused. Positions of bridges follow the written chain, without caps; N, C: chain ends. Non-standard residues stand in square brackets, D forms with d. Residues, ends and D or L forms follow the SMILES beside them. hCys = N[C@@H](CCS)C(=O)O; Dap = NC[C@H](N)C(=O)O; X1 = O=C(C[*:2])[*:1]
Measured property: pKd

Molecule	Measured property	Experimental value
C[C@H](NC(=O)[C@H](CCCCN)NC(=O)[C@H](CCCCN)NC(=O)[C@@H](N)CCCCN)C(=O)N[C@H]1CNC(=O)CSCC[C@@H](C(=O)O)NC(=O)[C@H](CCCNC(=N)N)NC(=O)[C@H](Cc2ccc(O)cc2)NC(=O)[C@H](CC(N)=O)NC(=O)[C@H](CC(=O)O)NC(=O)CNC(=O)[C@H](CCCNC(=N)N)NC(=O)[C@@H]2CCCN2C(=O)[C@H](CCC(=O)O)NC1=O [Cyclic peptide 47, KKKA(Dap(acetyl))EPRGDNYR-(Hcy)] (H-KKKA[Dap]EPRGDNYR[hCys]-OH; linker 5-14 via X1)	pKd	7.00 to 7.30

----------
# reported Kd; entries follow
# Target desc: human integrin αvβ5 (Homo sapiens, UniProt P06756+P18084)
# Protocol summary: Evaluation of integrin binding property (surface plasmon resonance, Biacore 3000, immobilized cyclic peptide)
# Condition details: surface plasmon resonance, immobilized cyclic peptide, human integrin αvβ5; read-out: Binding activity (integrin binding property, dissociation constant rank)
Starred links: 1 amine or outer side, 2 acyl side, 3 side chain; linkers in the order of their positions; H or OH if unused. Positions of bridges follow the written chain, without caps; N, C: chain ends. Non-standard residues stand in square brackets, D forms with d. Residues, ends and D or L forms follow the SMILES beside them. Pen = CC(C)(S)[C@H](N)C(=O)O; hCys = N[C@@H](CCS)C(=O)O; Dab = NCC[C@H](N)C(=O)O; Dap = NC[C@H](N)C(=O)O; X1 = O=C(C[*:2])[*:1]; X2 = O=C(C[*:1])[*:2]

Compound	Kd
C[C@H](NC(=O)[C@@H]1CCNC(=O)CSCC[C@H](NC(=O)[C@H](CCCCN)NC(=O)[C@H](CCCCN)NC(=O)[C@@H](N)CCCCN)C(=O)N[C@@H]([C@@H](C)O)C(=O)N2CCC[C@H]2C(=O)N[C@@H](CCCNC(=N)N)C(=O)NCC(=O)N[C@@H](CC(=O)O)C(=O)N[C@@H]([C@@H](C)O)C(=O)N[C@@H](Cc2ccccc2)C(=O)N[C@@H](C)C(=O)N1)C(=O)O [Cyclic peptide 159, KKK-(Hcy)-TPRGDTFA(Dab(acetyl))A] (H-KKK[hCys]TPRGDTFA[Dab]A-OH; linker 4-13 via X2)	< 0.05 µM
CC[C@H](C)[C@@H]1NC(=O)[C@@H](NC(=O)CNC(=O)[C@H](CCCCN)NC(=O)[C@H](CCCCN)NC(=O)[C@@H](N)CCCCN)C(C)(C)SCC(=O)NC[C@@H](C(=O)N[C@@H](C)C(=O)O)NC(=O)[C@H](CCCNC(=N)N)NC(=O)[C@H](Cc2ccccc2)NC(=O)[C@H]([C@@H](C)O)NC(=O)[C@H](CC(=O)O)NC(=O)CNC(=O)[C@H](CCCNC(=N)N)NC(=O)[C@@H]2CCCN2C1=O [Cyclic peptide 128, KKKG-(Pen)-IPRGDTFR(Dap(acetyl))A] (H-KKKG[Pen]IPRGDTFR[Dap]A-OH; linker 5-14 via X2)	< 0.05 µM
CC(C)[C@@H]1NC(=O)[C@@H](NC(=O)[C@H](CCCCN)NC(=O)[C@H](CCCCN)NC(=O)[C@@H](N)CCCCN)CCSCC(=O)NCC[C@@H](C(=O)O)NC(=O)CNC(=O)[C@H](Cc2ccccc2)NC(=O)[C@H]([C@@H](C)O)NC(=O)[C@H](CC(=O)O)NC(=O)CNC(=O)[C@H](CCCNC(=N)N)NC(=O)[C@@H]2CCCN2C1=O [Cyclic peptide 152, KKK-(Hcy)-VPRGDTFG(Dab(acetyl))] (H-KKK[hCys]VPRGDTFG[Dab]-OH; linker 4-13 via X2)	< 0.05 µM
CC[C@H](C)[C@@H]1NC(=O)[C@@H](NC(=O)CNC(=O)[C@H](CCCCN)NC(=O)[C@H](CCCCN)NC(=O)[C@@H](N)CCCCN)CCCCNC(=O)CSCC[C@@H](C(=O)N[C@@H](C)C(=O)O)NC(=O)[C@H](CCCNC(=N)N)NC(=O)[C@H](Cc2ccccc2)NC(=O)[C@H]([C@@H](C)O)NC(=O)[C@H](CC(=O)O)NC(=O)CNC(=O)[C@H](CCCNC(=N)N)NC(=O)[C@@H]2CCCN2C1=O [Cyclic peptide 120, KKKG(Lys(acetyl))IPRGDTFR-(Hcy)-A] (H-KKKGKIPRGDTFR[hCys]A-OH; linker 5-14 via X1)	0.05 to 0.1 µM
CC(C)[C@@H]1NC(=O)[C@H](CC(=O)O)NC(=O)CNC(=O)[C@H](CCCNC(=N)N)NC(=O)[C@H]([C@@H](C)O)NC(=O)[C@H](C(C)C)NC(=O)[C@@H](NC(=O)[C@H](C)NC(=O)[C@H](CCCCN)NC(=O)[C@H](CCCCN)NC(=O)[C@@H](N)CCCCN)CCSCC(=O)NCC[C@@H](C(=O)N[C@@H](C)C(=O)O)NC(=O)[C@H]([C@@H](C)O)NC(=O)[C@H](Cc2ccccc2)NC1=O [Cyclic peptide 113, KKKA-(Hcy)-VTRGDVFT(Dab(acetyl))A] (H-KKKA[hCys]VTRGDVFT[Dab]A-OH; linker 5-14 via X2)	0.05 to 0.1 µM
CC[C@H](C)[C@@H]1NC(=O)[C@@H](NC(=O)CNC(=O)[C@H](CCCCN)NC(=O)[C@H](CCCCN)NC(=O)[C@@H](N)CCCCN)CCNC(=O)CSC[C@@H](C(=O)N[C@@H](C)C(=O)O)NC(=O)[C@H](CCCNC(=N)N)NC(=O)[C@H](Cc2ccccc2)NC(=O)[C@H]([C@@H](C)O)NC(=O)[C@H](CC(=O)O)NC(=O)CNC(=O)[C@H](CCCNC(=N)N)NC(=O)[C@@H]2CCCN2C1=O [Cyclic peptide 138, KKKG(Dab(acetyl))IPRGDTFR(C)A] (H-KKKG[Dab]IPRGDTFRCA-OH; linker 5-14 via X1)	0.05 to 0.1 µM
CC(C)[C@@H]1NC(=O)[C@@H](NC(=O)[C@H](C)NC(=O)[C@H](CCCCN)NC(=O)[C@H](CCCCN)NC(=O)[C@@H](N)CCCCN)CCSCC(=O)NCC[C@@H](C(=O)NCC(=O)O)NC(=O)[C@H](C)NC(=O)[C@H](Cc2ccccc2)NC(=O)[C@H]([C@@H](C)O)NC(=O)[C@H](CC(=O)O)NC(=O)CNC(=O)[C@H](CCCNC(=N)N)NC(=O)[C@@H]2CCCN2C1=O [Cyclic peptide 107, KKKA-(Hcy)-VPRGDTFA(Dab(acetyl))G] (H-KKKA[hCys]VPRGDTFA[Dab]G-OH; linker 5-14 via X2)	< 0.05 µM
CC[C@H](C)[C@@H]1NC(=O)[C@@H](NC(=O)CNC(=O)[C@H](CCCCN)NC(=O)[C@H](CCCCN)NC(=O)[C@@H](N)CCCCN)CCCCNC(=O)CSC(C)(C)[C@@H](C(=O)N[C@@H](C)C(=O)O)NC(=O)[C@H](CCCNC(=N)N)NC(=O)[C@H](Cc2ccccc2)NC(=O)[C@H]([C@@H](C)O)NC(=O)[C@H](CC(=O)O)NC(=O)CNC(=O)[C@H](CCCNC(=N)N)NC(=O)[C@@H]2CCCN2C1=O [Cyclic peptide 135, KKKG(Lys(acetyl))IPRGDTFR-(Pen)-A] (H-KKKGKIPRGDTFR[Pen]A-OH; linker 5-14 via X1)	0.05 to 0.1 µM

----------
# Target desc: human integrin αvβ5 (Homo sapiens, UniProt P06756+P18084)
# Protocol summary: Evaluation of integrin binding property (surface plasmon resonance, Biacore 3000, immobilized cyclic peptide)
# Condition details: SPR, 25° C., HEPES buffer with 5 mM magnesium chloride, integrin 30-1,000 nM; read-out: Performance evaluation: Binding activity (dissociation constant between the cyclic peptide and human integrin αvβ5)
Starred links: 1 amine or outer side, 2 acyl side, 3 side chain; linkers in the order of their positions; H or OH if unused. Positions of bridges follow the written chain, without caps; N, C: chain ends. Non-standard residues stand in square brackets, D forms with d. Residues, ends and D or L forms follow the SMILES beside them. hCys = N[C@@H](CCS)C(=O)O; Dab = NCC[C@H](N)C(=O)O; X2 = O=C(C[*:1])[*:2]
Measured Kd, listed per entry.
Measured property: Kd

Compound	Experimental value
CC[C@H](C)[C@@H]1NC(=O)[C@@H](NC(=O)[C@H](CCCCN)NC(=O)[C@H](CCCCN)NC(=O)[C@@H](N)CCCCN)CCSCC(=O)NCC[C@@H](C(=O)O)NC(=O)[C@H](CCCNC(=N)N)NC(=O)[C@H](Cc2ccccc2)NC(=O)[C@H](CC(N)=O)NC(=O)[C@H](CC(=O)O)NC(=O)CNC(=O)[C@H](CCCNC(=N)N)NC(=O)[C@@H]2CCCN2C1=O [Cyclic peptide 11, KKK-(Hcy)-IPRGDNFR(Dab(acetyl))] (H-KKK[hCys]IPRGDNFR[Dab]-OH; linker 4-13 via X2)	< 50 nM
C[C@H](NC(=O)[C@H](CCCCN)NC(=O)[C@H](CCCCN)NC(=O)[C@@H](N)CCCCN)C(=O)N[C@H]1CCSCC(=O)NCC[C@@H](C(=O)N[C@@H](CC(=O)O)C(=O)O)NC(=O)[C@H](CCC(=O)O)NC(=O)[C@H](Cc2ccc(O)cc2)NC(=O)[C@H](CC(N)=O)NC(=O)[C@H](CC(=O)O)NC(=O)CNC(=O)[C@H](CCCNC(=N)N)NC(=O)[C@@H]2CCCN2C(=O)[C@H](CCC(=O)O)NC1=O [Cyclic peptide 36, KKKA-(Hcy)-EPRGDNYE(Dab(acetyl))D] (H-KKKA[hCys]EPRGDNYE[Dab]D-OH; linker 5-14 via X2)	50 to 100 nM
